All figures here come from the supplement of paper PMC3545927.

target-under-test: furin, P09958;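 further: purified furin at 1:10 enzyme:substrate in 50 mM HEPES pH 7.5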
Sequence (P09958 whole entry): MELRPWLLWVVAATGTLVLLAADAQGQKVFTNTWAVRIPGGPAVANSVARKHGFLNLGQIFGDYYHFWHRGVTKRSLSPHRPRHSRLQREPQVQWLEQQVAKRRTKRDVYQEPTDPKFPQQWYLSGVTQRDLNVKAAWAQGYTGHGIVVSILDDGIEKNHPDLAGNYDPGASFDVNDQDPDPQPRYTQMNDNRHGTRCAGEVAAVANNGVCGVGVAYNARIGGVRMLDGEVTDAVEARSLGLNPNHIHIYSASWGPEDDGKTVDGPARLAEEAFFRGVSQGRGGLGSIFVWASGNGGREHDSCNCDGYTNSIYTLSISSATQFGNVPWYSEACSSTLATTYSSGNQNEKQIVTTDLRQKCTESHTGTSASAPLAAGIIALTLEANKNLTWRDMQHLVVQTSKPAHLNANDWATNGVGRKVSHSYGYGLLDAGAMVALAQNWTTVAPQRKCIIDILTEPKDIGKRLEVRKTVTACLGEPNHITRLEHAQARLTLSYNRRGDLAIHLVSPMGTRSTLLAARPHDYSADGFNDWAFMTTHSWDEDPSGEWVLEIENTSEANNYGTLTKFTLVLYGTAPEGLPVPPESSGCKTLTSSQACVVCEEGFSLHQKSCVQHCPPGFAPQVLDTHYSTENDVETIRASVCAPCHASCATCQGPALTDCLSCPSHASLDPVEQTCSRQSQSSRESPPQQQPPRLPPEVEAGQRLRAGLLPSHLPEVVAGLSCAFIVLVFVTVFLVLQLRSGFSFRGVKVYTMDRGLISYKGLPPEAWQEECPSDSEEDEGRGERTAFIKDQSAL
experimental-protocol: furin cleavage Z-score vs untreated control; higher = more cleavage, active = 3.5 or more, inactive = 1 or less, 8 variable residues between constant flanks
reported-conditions: 30 min
The other results are listed elsewhere or left out. How many sequences the whole screen found active is unknown.
Just give me one of these, please: active, inactive

Previously resolved entries follow.
>>> answer_label("CANIVDVQYLAGNASASA [HC508]")
"inactive"
>>> answer_label("CALSRRRVRCAGNASASA [FS-1543]")
"active"
>>> answer_label("CANREVPCHRAGNASASA [HC2441]")
"inactive"
>>> answer_label("CAQRQRSVRCAGNASASA [FS-481]")
"inactive"

How did this test come out for CAEQPCHRPSAGNASASA [HC2342] ?
inactive

Short answer needed: outcome of this test for CAQIVGGVYLAGNASASA [HC175] ?
inactive

Answer briefly: the call reported for CASVWKDLLEAGNASASA [HC1431] in this assay.
inactive

Per the assay record, what outcome was assigned to CAIRRRTQRCAGNASASA [FS-933] ?
active

How did this test come out for CAINRRTGRPAGNASASA [FS-34] ?
inactive

Outcome? CAEVVPSTWVAGNASASA [HC140]
inactive

So what was the verdict on CALRERPVRCAGNASASA [FS-458] in this test?
active

What did this assay record as the result for CAYGAKDVRCAGNASASA [HC1422] ?
inactive
